- System: VRE EF379
- assay-comment: microbroth antibiotic susceptibility testing, VRE
- Assay type: cell-based, vancomycin-resistant Enterococcus faecium
- setup-conditions: Enterococcus, VRE; triplicate, averaged; 22 h at 37°C; read-out: VRE IC50
Consider the following compounds; for each one, report its IC50.
State just the number; it will be interpreted in µg/mL.

What value of measured IC50 is listed for C/C1=C\C(C)(C)/C=C/C[C@@]2(C)Oc3cc(O)c(=O)cc(C)c3CC2C[C@@H](O)C1 (stereo partly drawn) ? 52

What value of measured IC50 is listed for Cc1cc(O)c2c(c1)C(C1c3cccc(O)c3C(=O)c3c(O)cc(C)cc31)c1cccc(O)c1C2=O (stereo not drawn) ? 128

What value of measured IC50 is listed for COC1=C(Cl)C(C)(O)c2c(oc(=O)c3c(O)cc(OC)cc23)C1=O (stereo not drawn) ? 100
